# Study Target: GPR40 (Homo sapiens)
# Construct: expressed in transfected cells; host or cells: HEK293 cells stably expressing GPR40 (Hygromycin selection)
# Protocol Notes: IP1 accumulation assay in HEK293 cells stably expressing GPR40
# Assay type: cell-based
# Assay Setup: IP1 accumulation, HEK293 cells stably expressing GPR40, 2 hours at 37° C., % effect relative to AMG-1638; table of Biological Example 1
pEC50: −log10 of the molar value.
Measure Name: pEC50

Worked examples follow.
Mol Smiles	pEC50
COc1ccc(C(=O)N(CC(C)(C)CCCCCCCCCCCCCCCCCCCC(=O)NCC[N+](C)(CCC(=O)NCCN)CCC(=O)NCCN)c2cccc(C)n2)c(N2CCC(COc3cc([C@@H](CC(=O)O)C4CC4)ccn3)CC2)c1	9.55
COc1ccc(C(=O)N(CC(C)(C)CCn2cc(CCCCCCCCC=CCCCCCCCCC(=O)NCCC[N+]34CCN(CC3)CC4)nn2)c2cccc(C)n2)c(N2CCC(COc3cc([C@@H](CC(=O)O)C4CC4)ccn3)CC2)c1	9.01
COc1ccc(F)c(-c2ccc(COc3cccc([C@@H](CC(=O)O)C4CC4)c3)cc2OC(C)(C)Cn2cc(CCCCCCCCCCCCCC(=O)NCC[N+](C)(CCC(=O)NCCN)CCC(=O)NCCN)nn2)c1	7.51
COc1ccc(F)c(-c2ccc(COc3cccc([C@@H](CC(=O)O)C4CC4)c3)cc2CC(C)(C)Cn2cc(CCCCCCCCCCCCCC(=O)NCC[N+](C)(CCC(=O)NCCN)CCC(=O)NCCN)nn2)c1	7.20

[A] C[C@H](C(=O)O)[C@H](c1ccc2c(c1)O[C@@H](C1CCN(Cc3cc(-n4cc(CCCCCCCCCCCCCCC(=O)NCC[N+](C)(CCC(=O)NCCN)CCC(=O)NCCN)nn4)ccc3OC(F)(F)F)CC1)CC2)C1CC1
[B] C[C@H](C(=O)O)[C@H](c1ccc2c(c1)O[C@@H](C1CCN(Cc3cc(-n4cc(CCCCCCCCCCCCCCCCCC(=O)NCCC[N+](C)(C)CC(=O)NCCN)nn4)ccc3OC(F)(F)F)CC1)CC2)C1CC1
Of A and B , whose reported pEC50 is the larger number? Write down the label attached to your selection. B

----------
# Study Target: GPR40 (Homo sapiens, UniProt O14842)
# Construct: expressed in transfected cells; host or cells: HEK293 cells stably expressing GPR40 (Hygromycin selection)
# Sequence (O14842 whole entry): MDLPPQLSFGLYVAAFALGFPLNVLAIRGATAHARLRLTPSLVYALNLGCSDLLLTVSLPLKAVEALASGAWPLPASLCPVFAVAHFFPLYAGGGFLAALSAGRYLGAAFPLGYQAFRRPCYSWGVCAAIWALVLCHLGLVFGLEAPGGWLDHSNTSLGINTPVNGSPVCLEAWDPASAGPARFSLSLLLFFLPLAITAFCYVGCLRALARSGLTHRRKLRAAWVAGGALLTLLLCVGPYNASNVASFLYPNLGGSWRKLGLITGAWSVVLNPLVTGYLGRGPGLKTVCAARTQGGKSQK
# Protocol Notes: IP1 accumulation assay in HEK293 cells stably expressing GPR40
# Type: cell-based
# Assay Setup: IP1 accumulation, HEK293 cells stably expressing GPR40, 2 hours at 37° C., % effect relative to AMG-1638; table of Biological Example 1
// reported EC50 for each item listed

Compound	EC50
COc1ccc(F)c(-c2ccc(COc3cccc([C@@H](CC(=O)O)C4CC4)c3)cc2CC(C)(C)Cn2cc(CCCCCCCCCC(=O)NCCC[N+](C)(CC(=O)[O-])CC(=O)O)nn2)c1 (stereo partly drawn)	> 10 µM
COc1ccc(F)c(-c2ccc(COc3cccc([C@@H](CC(=O)O)C4CC4)c3)cc2OC(C)(C)Cn2cc(CCCCCCCCCCCCC(=O)NCCN(CCC(=O)NCCN)CCC(=O)NCCN)nn2)c1	> 1 µM

// below: EC50 requested for another compound
Name the recorded EC50 of the compound listed here: `C[C@H](C(=O)O)[C@H](c1ccc2c(c1)O[C@@H](C1CCN(Cc3cc(-n4cc(COCCOCCOCCOCCOCC(=O)NCCN(CCC(=O)NCCN)CCC(=O)NCCN)nn4)ccc3OC(F)(F)F)CC1)CC2)C1CC1` > 10 µM
